# System: TNFα release from mononuclear cells
# procedure-text: Test 4: cytokine release from LPS-stimulated mononuclear cells, TNFα
# Format: cell-based
# experimental-setup: Homo sapiens, read-out: Test 4 residual activity (TNFα release), percent of control
Answer each item with its documented activity at 10 µM.
# unit: % | format: bare number

Request body: readout activity at 10 µM, system TNFα release from mononuclear cells, query `CC(C)(C)c1cc(-c2cc(CCC(=O)Nc3nnn[nH]3)on2)cc(C(C)(C)C)c1O` . Return the value.
79

Request body: readout activity at 10 µM, system TNFα release from mononuclear cells, query `CC(C)(C)c1cc(-c2cc(CCO)on2)cc(C(C)(C)C)c1O` . Return the value.
82

Request body: readout activity at 10 µM, system TNFα release from mononuclear cells, query CC(C)(C)c1cc(C2=NOC(c3ccncc3)C2)cc(C(C)(C)C)c1O (stereo not drawn) . Return the value.
78
